# target entity: Ba/F3-KDR-transfected cells (Homo sapiens, UniProt P35968, cells depend on it, form not given)
# Construct: BAF3-KDR (MIN IL3 Alamar Blue pIC50); other: minus IL3; 24 hours, Alamar Blue
# Sequence (P35968 whole entry, change not shown): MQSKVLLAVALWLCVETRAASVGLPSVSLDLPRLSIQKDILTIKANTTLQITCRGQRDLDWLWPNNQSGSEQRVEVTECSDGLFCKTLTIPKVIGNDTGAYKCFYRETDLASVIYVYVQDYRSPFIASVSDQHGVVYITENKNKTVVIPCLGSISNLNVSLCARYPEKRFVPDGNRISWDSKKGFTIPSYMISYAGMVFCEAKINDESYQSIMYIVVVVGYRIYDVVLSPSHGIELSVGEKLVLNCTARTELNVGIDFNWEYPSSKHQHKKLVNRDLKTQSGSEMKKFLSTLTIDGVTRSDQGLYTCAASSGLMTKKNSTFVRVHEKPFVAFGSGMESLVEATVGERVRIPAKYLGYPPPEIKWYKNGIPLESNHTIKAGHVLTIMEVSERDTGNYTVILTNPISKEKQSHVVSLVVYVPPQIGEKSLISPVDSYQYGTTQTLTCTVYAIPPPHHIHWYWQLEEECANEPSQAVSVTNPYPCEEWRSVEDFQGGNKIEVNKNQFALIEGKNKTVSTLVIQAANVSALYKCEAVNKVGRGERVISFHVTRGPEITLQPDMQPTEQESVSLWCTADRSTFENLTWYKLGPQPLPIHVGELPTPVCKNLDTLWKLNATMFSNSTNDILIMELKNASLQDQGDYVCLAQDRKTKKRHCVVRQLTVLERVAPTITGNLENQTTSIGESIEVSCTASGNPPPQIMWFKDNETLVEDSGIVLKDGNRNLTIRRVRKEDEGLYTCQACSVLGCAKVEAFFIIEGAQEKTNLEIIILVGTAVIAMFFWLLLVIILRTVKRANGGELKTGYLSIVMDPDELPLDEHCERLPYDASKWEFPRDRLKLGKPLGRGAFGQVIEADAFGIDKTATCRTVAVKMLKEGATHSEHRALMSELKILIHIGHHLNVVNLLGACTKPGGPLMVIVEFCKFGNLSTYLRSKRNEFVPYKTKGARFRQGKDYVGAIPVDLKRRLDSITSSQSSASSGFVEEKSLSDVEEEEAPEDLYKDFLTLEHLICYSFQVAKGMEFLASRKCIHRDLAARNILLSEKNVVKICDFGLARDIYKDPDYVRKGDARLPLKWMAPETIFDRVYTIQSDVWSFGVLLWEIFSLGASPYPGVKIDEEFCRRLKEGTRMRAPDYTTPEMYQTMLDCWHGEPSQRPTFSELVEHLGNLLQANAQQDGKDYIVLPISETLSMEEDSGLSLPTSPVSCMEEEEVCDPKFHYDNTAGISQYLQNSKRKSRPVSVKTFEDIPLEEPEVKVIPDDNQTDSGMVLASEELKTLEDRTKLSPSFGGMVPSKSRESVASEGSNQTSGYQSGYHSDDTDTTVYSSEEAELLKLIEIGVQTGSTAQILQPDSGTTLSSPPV
# experiment description: Ba/F3-KDR (minus IL3 or plus IL3) cellular proliferation assay, Alamar Blue
# Type: cell-based
# condition parameters: minus IL3; 24 hours, Alamar Blue
Known BAF3-KDR (MIN IL3 Alamar Blue pIC50) of a selection of molecules
Just the number, please.

Study these solved cases before continuing.
>  <molecule>
COc1cccnc1C#CCN(c1ccc2ncc(-c3cnn(C)c3)cc2c1)c1c(F)c(OC)cc(OC)c1F

>  <BAF3-KDR (MIN IL3 Alamar Blue pIC50)>
5.335

$$$$
>  <molecule>
COc1cc(OC)c(F)c(N(CCNC(C)C)c2ccc3ncc(-c4cnn(C)c4)cc3c2)c1F

>  <BAF3-KDR (MIN IL3 Alamar Blue pIC50)>
6.95

$$$$
>  <molecule>
COc1cc(OC)cc(/C(=C/C#N)c2ccc3ncc(-c4cnn(C)c4)cc3c2)c1

>  <BAF3-KDR (MIN IL3 Alamar Blue pIC50)>
5.15

$$$$
>  <molecule>
COc1cc(OC)cc(N(CC2CCC(=O)N2)c2ccc3ncc(-c4cnn(C)c4)cc3c2)c1 (stereo not shown)

>  <BAF3-KDR (MIN IL3 Alamar Blue pIC50)>
5.18

$$$$
>  <molecule>
COc1cc(OC)cc(N(CC#Cc2nccn2C)c2ccc3ncc(-c4cnn(C)c4)cc3c2)c1

>  <BAF3-KDR (MIN IL3 Alamar Blue pIC50)>
5.02

$$$$

Ask | So what's the measured BAF3-KDR (MIN IL3 Alamar Blue pIC50) for this one? COc1cc(OC)cc(N(CCCN)c2ccc3ncc(-c4cnn(C)c4)cc3c2)c1
Reply | 5.42

Ask | So what's the measured BAF3-KDR (MIN IL3 Alamar Blue pIC50) for this one? COc1cc(OC)cc(N(CCNC(C)C)c2ccc3ncc(-c4cn[nH]c4)cc3c2)c1
Reply | 5.49

Ask | So what's the measured BAF3-KDR (MIN IL3 Alamar Blue pIC50) for this one? COc1cc(OC)cc(N(Cc2ncc[nH]2)c2ccc3ncc(-c4cnn(C)c4)cc3c2)c1
Reply | 5.01
